Here the recorded self-splicing fitness (ln) is given for each entry.
test.method.notes: self-splicing fitness, log relative to wild type (ln ratio); higher = more splicing; Tetrahymena group I intron in knt gene, E. coli kanamycin selection, DiMSum; sequences stand for … in CUCUCU…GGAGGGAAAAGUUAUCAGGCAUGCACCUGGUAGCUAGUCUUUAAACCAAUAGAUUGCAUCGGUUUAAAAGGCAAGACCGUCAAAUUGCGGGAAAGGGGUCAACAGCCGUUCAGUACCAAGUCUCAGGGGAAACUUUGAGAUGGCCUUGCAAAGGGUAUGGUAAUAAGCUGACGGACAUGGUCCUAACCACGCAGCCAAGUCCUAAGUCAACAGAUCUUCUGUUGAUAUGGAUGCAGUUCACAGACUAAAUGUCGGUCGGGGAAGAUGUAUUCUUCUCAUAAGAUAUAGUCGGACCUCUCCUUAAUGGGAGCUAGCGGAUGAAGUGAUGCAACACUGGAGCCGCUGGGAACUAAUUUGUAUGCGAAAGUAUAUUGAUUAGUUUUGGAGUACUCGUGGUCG;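 also: selection with 25 µg/mL kanamycin versus none on LB agar overnight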
measurement.parameters: 37 °C
// no unit string in output, number only

Reference set (3 entries):
[
  {
    "polymer.sequence": "CCUUAGCAAUAUUACGGAGG",
    "self-splicing fitness (ln)": -3.11
  },
  {
    "polymer.sequence": "ACUCAGCAAUAUUACGACGA",
    "self-splicing fitness (ln)": -0.164
  },
  {
    "polymer.sequence": "UCAAAGCAAUAUUACGUCCC",
    "self-splicing fitness (ln)": -1.14
  }
]

Query (sequence): `AAUAAGCAAUAUUACGAGUG` ; field requested: self-splicing fitness (ln)
-0.56

// lookup self-splicing fitness (ln) for `GCUAAGCAAUAUUACGACGA`
-0.529

Any idea what self-splicing fitness (ln) was measured for `GGGCAGCAAUAUUACGAUCG` ?
0.377

Need self-splicing fitness (ln), item `GCGCAGCAAUAUUACGUGAG`
0.445

What value of self-splicing fitness (ln) has been recorded for this entry: `CAGGAGCAAUAUUACGUCGG`
-0.66

Tell me the measured self-splicing fitness (ln) of `CGUGAGCAAUAUUACGGGGA` , please.
-3.62

# query: self-splicing fitness (ln) of entry `GUUCAGCAAUAUUACGGAGG`
-1.22

What value of measured self-splicing fitness (ln) is listed for `CUUCAGCAAUAUUACGACAA` ?
-2.52

self-splicing fitness (ln) lookup needed for `CUUAAGCAAUAUUACGUUGA` , thanks.
-2.78

Endpoint output: self-splicing fitness (ln) of `UUUAAGCAAUAUUACGAGUG` . Value?
-0.204

I'd like to know its self-splicing fitness (ln). The sequence in question is `UGGCAGCAAUAUUACGGACC`
-0.716

If you can, please state the reported self-splicing fitness (ln) value of `GCUAAGCAAUAUUACGCUCA` .
-1.52

// lookup self-splicing fitness (ln) for `GACCAGCAAUAUUACGUCCU`
0.317

I would be grateful if you could share the reported self-splicing fitness (ln) for `UAAUAGCAAUAUUACGCAUG` .
0.553

# query: self-splicing fitness (ln) of entry `CUGAAGCAAUAUUACGUAUU`
-2.85

Given the sequence `AAUCAGCAAUAUUACGUAUG` , what is its reported self-splicing fitness (ln)?
0.138

GET /values?readout=self-splicing fitness (ln)&item= `CUAGAGCAAUAUUACGGGUU`
-2.33
